Experimental details: plasma level in mice after IV, PO or IP administration (LC/MS)
Assay type: in vivo, Balb/c mice
Condition description: Balb/c, mouse, plasma, oral, 30 mg/kg, PO2 30 mg/kg, 4 hours
Assay metric: concentration at 4 h (µg/mL)
Note: unit µg/mL is implicit; provide only the numeric part.

Can you look up the measured concentration at 4 h of CCCC(NC(=O)/C(C#N)=C/c1nc(Cl)ccc1Cl)c1ccc(OCCN2CCOCC2)cc1 (stereo not shown) [Compound G9] for me?
0.0571

###

Experimental details: plasma level in mice after IV, PO or IP administration (LC/MS)
Assay type: in vivo, Balb/c mice
Condition description: Balb/c, mouse, plasma, intravenous, 10 mg/kg, IV2 10 mg/kg, 4 hours
Assay metric: concentration at 4 h (ng/mL)
Note: unit ng/mL is implicit; provide only the numeric part.

Can you look up the measured concentration at 4 h of CCCC(NC(=O)/C(C#N)=C/c1nc(Cl)ccc1Cl)c1ccc(OCCN2CCOCC2)cc1 (stereo not shown) for me?
289
